The reader will find reported pIC50 values listed item by item below.
# PROTOCOL: Heparin-binding epidermal growth factor (HB-EGF) shedding inhibition
pIC50: −log10 of the molar value.

{"SMILES NOTATION": "NS(=O)(=O)c1ccc(-c2ccc(S(=O)(=O)N3Cc4ccccc4C[C@@H]3C(=O)NO)cc2)cc1", "pIC50": 4.70}
{"SMILES NOTATION": "O=C(NO)[C@H]1Cc2nccnc2CN1S(=O)(=O)c1ccc(OCCO)cc1", "pIC50": 5.82}
{"SMILES NOTATION": "Cc1ccccc1S(=O)(=O)N1Cc2nccnc2C[C@@H]1C(=O)NO", "pIC50": 4.92}
{"SMILES NOTATION": "Nc1ccc(Oc2ccc(S(=O)(=O)N3Cc4nccnc4C[C@@H]3C(=O)NO)cc2)cc1", "pIC50": 6.00}
{"SMILES NOTATION": "O=C(NO)[C@H]1Cc2nccnc2CN1S(=O)(=O)c1ccc(Oc2ccc(Oc3ccccc3)cc2)cc1", "pIC50": 5.21}
{"SMILES NOTATION": "COc1ccc(S(=O)(=O)N2Cc3cc(O)c(O)cc3C[C@@H]2C(=O)NO)cc1", "pIC50": 6.14}
{"SMILES NOTATION": "O=C(NO)[C@H]1Cc2nccnc2CN1S(=O)(=O)c1ccc(OCCCBr)cc1", "pIC50": 6.22}
{"SMILES NOTATION": "O=C(O)c1ccc(S(=O)(=O)N2Cc3nccnc3C[C@@H]2C(=O)NO)cc1", "pIC50": 4.15}
{"SMILES NOTATION": "COCCCOc1ccc(S(=O)(=O)N2Cc3cc(N)ccc3C[C@@H]2C(=O)NO)cc1", "pIC50": 7.41}
{"SMILES NOTATION": "O=C(NO)[C@H]1Cc2nccnc2CN1S(=O)(=O)c1ccc(C(F)(F)F)cc1", "pIC50": 4.40}
{"SMILES NOTATION": "COc1ccc(S(=O)(=O)N2Cc3cc(NC(=O)CN)ccc3C[C@@H]2C(=O)NO)cc1", "pIC50": 6.55}
{"SMILES NOTATION": "Cc1ccc(S(=O)(=O)N2Cc3nccnc3C[C@@H]2C(=O)NO)cc1", "pIC50": 5.57}
{"SMILES NOTATION": "COc1ccc(S(=O)(=O)N2Cc3cc(N)ccc3C[C@@H]2C(=O)NO)cc1", "pIC50": 6.72}
{"SMILES NOTATION": "CN(C)CCCOc1ccc(S(=O)(=O)N2Cc3nccnc3C[C@@H]2C(=O)NO)cc1", "pIC50": 4.74}
{"SMILES NOTATION": "O=C(NO)[C@H]1Cc2cc(O)c(O)cc2CN1S(=O)(=O)c1ccc(OCCCc2ccccc2)cc1", "pIC50": 6.00}
{"SMILES NOTATION": "O=C(NO)[C@H]1Cc2nccnc2CN1S(=O)(=O)c1cccnc1", "pIC50": 5.16}
{"SMILES NOTATION": "CCCOc1ccc(S(=O)(=O)N2Cc3cc(O)c(O)cc3C[C@@H]2C(=O)NO)cc1", "pIC50": 6.20}
{"SMILES NOTATION": "CCOC(=O)COc1ccc(S(=O)(=O)N2Cc3nccnc3C[C@@H]2C(=O)NO)cc1", "pIC50": 6.00}
{"SMILES NOTATION": "CCOCCCOc1ccc(S(=O)(=O)N2Cc3cc(O)c(O)cc3C[C@@H]2C(=O)NO)cc1", "pIC50": 6.68}
{"SMILES NOTATION": "CSCCCOc1ccc(S(=O)(=O)N2Cc3nccnc3C[C@@H]2C(=O)NO)cc1", "pIC50": 7.00}
{"SMILES NOTATION": "O=C(NO)[C@H]1Cc2cc(O)c(O)cc2CN1S(=O)(=O)c1cccs1", "pIC50": 6.80}
{"SMILES NOTATION": "Nc1ccc2c(c1)CN(S(=O)(=O)c1ccc(Oc3ncccn3)cc1)[C@@H](C(=O)NO)C2", "pIC50": 5.35}
{"SMILES NOTATION": "O=C(NO)[C@H]1Cc2ccccc2CN1S(=O)(=O)c1cccs1", "pIC50": 6.47}
{"SMILES NOTATION": "CCCCCC(=O)Nc1ccc(S(=O)(=O)N2Cc3nccnc3C[C@@H]2C(=O)NO)cc1", "pIC50": 5.11}
{"SMILES NOTATION": "Cc1ccc(S(=O)(=O)N2Cc3cc(O)c(O)cc3C[C@@H]2C(=O)NO)s1", "pIC50": 5.27}
{"SMILES NOTATION": "COc1ccc(S(=O)(=O)N2Cc3cc(N(CC(=O)O)CC(=O)O)ccc3C[C@@H]2C(=O)NO)cc1", "pIC50": 6.44}
{"SMILES NOTATION": "O=C(NO)[C@H]1Cc2cc(O)c(O)cc2CN1S(=O)(=O)c1ccc(Oc2cnccn2)cc1", "pIC50": 6.09}
{"SMILES NOTATION": "O=C(NO)[C@H]1Cc2nccnc2CN1S(=O)(=O)c1ccc([N+](=O)[O-])cc1", "pIC50": 4.15}
{"SMILES NOTATION": "COc1ccc(S(=O)(=O)N2Cc3ccccc3C[C@@H]2C(=O)NO)cc1", "pIC50": 6.55}
{"SMILES NOTATION": "O=C(NO)[C@H]1Cc2nccnc2CN1S(=O)(=O)c1ccc(-c2ccccc2)cc1", "pIC50": 5.82}
{"SMILES NOTATION": "CC(C)c1ccc(S(=O)(=O)N2Cc3ccccc3C[C@@H]2C(=O)NO)cc1", "pIC50": 5.26}
{"SMILES NOTATION": "Nc1cccc(S(=O)(=O)N2Cc3ccccc3C[C@@H]2C(=O)NO)c1", "pIC50": 5.96}
{"SMILES NOTATION": "COc1ccc(S(=O)(=O)N2Cc3nccnc3C[C@@H]2C(=O)NO)cc1", "pIC50": 6.46}
{"SMILES NOTATION": "O=C(NO)[C@H]1Cc2ccccc2CN1S(=O)(=O)c1ccccc1", "pIC50": 7.38}
{"SMILES NOTATION": "Nc1ccc(S(=O)(=O)N2Cc3nccnc3C[C@@H]2C(=O)NO)cc1", "pIC50": 5.74}
{"SMILES NOTATION": "CCCCOc1ccc(S(=O)(=O)N2Cc3ccccc3C[C@@H]2C(=O)NO)cc1", "pIC50": 6.38}
{"SMILES NOTATION": "CCCCOCCCOc1ccc(S(=O)(=O)N2Cc3nccnc3C[C@@H]2C(=O)NO)cc1", "pIC50": 6.59}
{"SMILES NOTATION": "O=C(NO)[C@H]1Cc2nccnc2CN1S(=O)(=O)c1ccc(OCCCc2ccccc2)cc1", "pIC50": 6.20}
{"SMILES NOTATION": "CC(C)COCCCOc1ccc(S(=O)(=O)N2Cc3nccnc3C[C@@H]2C(=O)NO)cc1", "pIC50": 6.25}
